For each entry below, report its RP-LC retention time value.
PROTOCOL_DESCRIPTION: gradient 5% acetonitrile 3 min, to 50% in 2 min, to 85% in 15 min, held 3 min, 100 µL/min
CONDITION_SUMMARY: column: Zorbax Extend-C18 2.1 x 50 mm; eluents: water / acetonitrile, 0.1% formic acid
Give bare numbers, in s.

molecule=COc1ccc2[nH]c3c(c2c1)CCNC31CCN(Cc2ccc(F)c(F)c2)CC1 measured_metric="RP-LC retention time" meas_value=587
molecule="Cc1ccc2c(c1)N(CCCC(=O)NCCCN1CC(C)CC(C)C1)C(=O)CO2 (centres undefined)" measured_metric="RP-LC retention time" meas_value=674
molecule="COc1cccc(CNC(=O)CN2C(=O)NC(c3ccc(Cl)cc3)C3=C2COC3=O)c1 (centres undefined)" measured_metric="RP-LC retention time" meas_value=764

Ask | Entry CCCOc1nn(CCC)cc1C(=O)N1CCCC1 has what RP-LC retention time?
Reply | 700

* * *

For each entry below, report its RP-LC retention time value.
PROTOCOL_DESCRIPTION: gradient 5% acetonitrile 3 min, to 50% in 2 min, to 85% in 15 min, held 3 min, 100 µL/min
CONDITION_SUMMARY: column: Zorbax Extend-C18 2.1 x 50 mm; eluents: water / acetonitrile, 0.1% formic acid
One number for each entry, in s.

Solved entries:
compound=Cc1ccc(-c2cc3c(N4CCC(C(=O)NC5CCCC5)CC4)nccn3n2)c(C)c1 measured_metric="RP-LC retention time" unit_string=s meas_value=849
compound=COc1cccc(C2=NC3(CCN(C(=O)c4ccc5c(c4)OCO5)CC3)NC2=O)c1 measured_metric="RP-LC retention time" unit_string=s meas_value=712
compound=COCc1cc2nn(CC(=O)Nc3ccc(C)cc3)c(=O)n2c(-c2ccccc2)n1 measured_metric="RP-LC retention time" unit_string=s meas_value=838
compound=CC(C)NC(=O)N1CCc2c(c(-c3nc(-c4cccc(F)c4)no3)nn2C)C1 measured_metric="RP-LC retention time" unit_string=s meas_value=853
compound=O=c1c2sccc2n(Cc2nc(-c3ccc(Cl)c(F)c3)no2)c(=O)n1CCc1ccccc1 measured_metric="RP-LC retention time" unit_string=s meas_value=1280
compound="Clc1ccc(C2CC3CCC2N3)cn1 (stereo unspecified)" measured_metric="RP-LC retention time" unit_string=s meas_value=613
compound=O=C(Nc1cccc(Cl)c1)C(=O)c1cn(CC(=O)N2CCOCC2)c2ccccc12 measured_metric="RP-LC retention time" unit_string=s meas_value=997
compound=COc1ccc(-n2ccc(=O)c(-c3nc(-c4ccccc4F)no3)n2)cc1 measured_metric="RP-LC retention time" unit_string=s meas_value=822
compound=O=C([C@@H]1C[C@H](F)CN1S(=O)(=O)c1ccc(Cl)s1)N1CCc2ccccc2C1 measured_metric="RP-LC retention time" unit_string=s meas_value=955
compound="Cc1ccc(NC(=O)N2CCCC2c2nc(-c3ccc(F)cc3F)no2)c(C)c1 (stereo unspecified)" measured_metric="RP-LC retention time" unit_string=s meas_value=1050

Dear reader, for each entry below, please note its RP-LC retention time.
1. O=C(Nc1cccc([N+](=O)[O-])c1)c1ccc2ccccc2c1O
2. O=C(NCCc1csc(C2CCCN(C(=O)C3CC3)C2)n1)C1CC1 (stereo unspecified)
3. CCCSc1nnc(NC(=O)c2c(-c3ccccc3Cl)noc2C)s1
4. CCOC(=O)[C@H]1O[C@@H]1C(=O)N[C@@H](CC(C)C)C(=O)NCCC(C)C
5. CC(=O)c1cccc(NC(=O)Cn2nc3c(cc2=O)CN(C(C)=O)CC3)c1
6. O=C(Cn1c(=O)cc(-c2nc(C3CC3)no2)c2ccccc21)NC1CCCC1

Reply |
1. 1240
2. 662
3. 956
4. 992
5. 601
6. 869
